src = patent US9796672B2

target: Sigma-2 receptor; test: Sigma-2 receptor competitive radioligand binding assay; design: species or system rat; conditions: read-out: Sigma-2 Receptor Affinity, Ki
Observed property: Ki (nM)
Reply numerically in nM, unit not repeated.

COc1cc(CCC(C)(C)N2Cc3cccc(C(=O)NCCO)c3C2)ccc1O [compound 79] ... 460
CC(C)(CCc1ccc(Cl)c(Cl)c1)N1Cc2ccc(N3CCNCC3)cc2C1 [compound 108] ... 15
C[C@H](CCc1ccc(F)cc1)N1Cc2cc3c(cc2C1)OCO3 [compound 23] ... 13

// switching to the query compound
## Task Retrieve Ki measured for C[C@H](CCc1ccc(Cl)c(Cl)c1)N1Cc2cccc(F)c2C1 [compound 9] and print it.
## Result 3.6

---

target: Sigma-1 receptor; experiment: Sigma-1 receptor competitive radioligand binding assay; settings: read-out: Sigma-1 Receptor Affinity, Ki
Observed property: pKi
Here pKi is given on a logarithmic scale as minus log10 of the concentration in mol/L.

The cases that follow already have their pKi on record.
COc1cc(CCC(C)(C)N2Cc3cccc(F)c3C2)ccc1OCCO ... 5.89
COc1cc(CC[C@@H](C)N2Cc3cc(Cl)c(Cl)cc3C2)ccc1O ... 7.64
CC(C)(CCc1ccc(F)cc1)N1Cc2ccc(F)cc2C1 ... 8.68
CC(C)(CCc1ccc(O)c(OC(F)(F)F)c1)N1Cc2cccc(S(C)(=O)=O)c2C1 ... 7.26
CC(C)(C)Oc1cc(CCC(C)(C)N2Cc3ccc(S(C)(=O)=O)cc3C2)ccc1O ... 7.20

## Task Retrieve pKi measured for COCCNC(=O)c1cccc2c1CN(C(C)(C)CCc1ccc(O)c(OC)c1)C2 and print it.
## Result 5.00

## Task Retrieve pKi measured for COc1cc(CC[C@@H](C)N2Cc3cc4c(cc3C2)OCO4)ccc1OCCO and print it.
## Result 6.89

## Task Retrieve pKi measured for COc1cc(CCC(C)(C)N2Cc3cc4c(cc3C2)OCO4)ccc1OCCO and print it.
## Result 6.00

## Task Retrieve pKi measured for C[C@H](CCc1ccc(Cl)c(Cl)c1)N1Cc2cc(Cl)c(Cl)cc2C1 and print it.
## Result 7.25

## Task Retrieve pKi measured for CC(C)(CCc1ccc(F)cc1)N1Cc2cc3c(cc2C1)OCO3 and print it.
## Result 8.39

## Task Retrieve pKi measured for COc1cc(CC[C@@H](C)N2Cc3cccc(S(C)(=O)=O)c3C2)ccc1O and print it.
## Result 5.89

---

target: Sigma-2 receptor; assay: Sigma-2 receptor competitive radioligand binding assay; conditions: read-out: Sigma-2 Receptor Affinity, Ki
Field 'label' (enum: yes (1) / no (0)). Set to yes (1) when Ki is strictly under 30 nM; else no (0).

See these solved cases before continuing.
CC(C)Oc1cc(CCC(C)(C)N2Cc3cccc(F)c3C2)ccc1O ... yes (1)
CC(C)(CCc1ccc(Cl)c(Cl)c1)N1Cc2cccc(C(=O)N3CCNCC3)c2C1 ... no (0)
CC(C)Oc1cc(CCC(C)(C)N2Cc3ccc(S(C)(=O)=O)cc3C2)ccc1O ... yes (1)
COc1ccc(CCC(C)(C)N2Cc3cccc(C(=O)N4CCNCC4)c3C2)cc1 ... no (0)

## Task Ki strictly < 30 nM for this molecule? CC(C)(CCc1ccc(Cl)c(Cl)c1)N1Cc2cccc(N3CCNCC3)c2C1
## Result no (0)
